// hERG current change (%, negative = inhibition) at 10uM lookup, one value per entry
- systemName: human ether-à-go-go-related gene (hERG) potassium channel (human, UniProt Q12809);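 further: peak tail current of the secondary pulse compared with the same well before compound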
- Sequence (Q12809 whole entry, looked up): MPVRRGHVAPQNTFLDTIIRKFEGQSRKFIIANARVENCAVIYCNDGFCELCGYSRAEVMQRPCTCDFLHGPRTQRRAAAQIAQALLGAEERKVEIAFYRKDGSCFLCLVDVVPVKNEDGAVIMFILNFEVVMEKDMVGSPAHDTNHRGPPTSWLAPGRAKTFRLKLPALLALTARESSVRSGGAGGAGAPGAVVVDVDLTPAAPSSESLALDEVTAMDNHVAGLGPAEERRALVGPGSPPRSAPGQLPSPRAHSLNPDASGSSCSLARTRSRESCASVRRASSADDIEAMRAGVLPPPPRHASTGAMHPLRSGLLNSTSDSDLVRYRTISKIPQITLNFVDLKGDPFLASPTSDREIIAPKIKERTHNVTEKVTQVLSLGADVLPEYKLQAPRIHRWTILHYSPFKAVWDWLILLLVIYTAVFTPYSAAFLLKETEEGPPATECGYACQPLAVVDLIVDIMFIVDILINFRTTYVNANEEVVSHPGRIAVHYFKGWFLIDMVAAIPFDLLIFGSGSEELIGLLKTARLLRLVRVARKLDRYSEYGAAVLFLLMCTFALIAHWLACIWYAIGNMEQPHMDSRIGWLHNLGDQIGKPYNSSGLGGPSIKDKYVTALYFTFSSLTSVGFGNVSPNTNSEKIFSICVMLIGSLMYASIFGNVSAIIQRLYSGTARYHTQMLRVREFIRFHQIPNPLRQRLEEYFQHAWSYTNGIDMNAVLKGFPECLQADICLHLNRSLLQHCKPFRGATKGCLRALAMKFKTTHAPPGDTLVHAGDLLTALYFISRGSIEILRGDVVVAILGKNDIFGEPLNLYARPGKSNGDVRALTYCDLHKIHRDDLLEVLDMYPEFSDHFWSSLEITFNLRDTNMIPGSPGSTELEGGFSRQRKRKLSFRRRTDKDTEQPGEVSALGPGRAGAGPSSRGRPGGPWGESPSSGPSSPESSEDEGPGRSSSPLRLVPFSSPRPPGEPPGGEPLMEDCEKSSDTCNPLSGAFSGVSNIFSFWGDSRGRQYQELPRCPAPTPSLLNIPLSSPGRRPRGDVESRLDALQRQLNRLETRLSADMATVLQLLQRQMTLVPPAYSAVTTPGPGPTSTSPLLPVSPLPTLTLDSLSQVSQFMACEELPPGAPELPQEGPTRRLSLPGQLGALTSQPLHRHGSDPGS
- procedureText: primary screen, population patch clamp on CHO cells stably expressing hERG; higher = less effect of the substance
Screen size: about 310,000 compounds; about 14,000 (4.5%) showed an effect of 50% or more. Effects have a minus sign here. The sample as a whole holds a higher share of strong results than the screen did.
resultType: hERG current change (%, negative = inhibition) at 10uM (%)

* CCN(CC)c1ccc(NC(=O)c2cnc3ccccn3c2=O)c(C)c1 | 4.51
* O=C(Nc1cc(F)cc(F)c1)c1ccc(NCCc2ccccc2)c([N+](=O)[O-])c1 | 3.74
* COc1ccccc1N1CCN(Cc2nc(N)nc(Nc3ccccc3)n2)CC1 | -69.6
* COc1ccc(S(=O)(=O)NCc2ccncc2)cc1NC(=O)c1ccccc1 | -34.7
* COc1cccc(CC(=O)Nc2ccc3nc(C)sc3c2)c1 | 8.73
* O=C(COC(=O)c1ccccc1O)Nc1cc(S(=O)(=O)N2CCCCCC2)ccc1Cl | -9
* COc1ccc(S(=O)(=O)NCC2CCCO2)cc1NC(=O)c1ccc(Cl)cc1 (stereo not shown) | -54
* Cc1ccc(NC(=O)c2ccc(NCCCN3CCC(C)CC3)c([N+](=O)[O-])c2)cc1F.Cl | -8.31
* COc1cc2nc(Nc3ccc(C)c(Cl)c3)nc(N)c2cc1OC.Cl | 4.1
* COc1ccccc1N1CCN(Cc2nc(N)nc(Nc3ccc(C)c(Cl)c3)n2)CC1 | -75.5
* Cl.O=C(Nc1cc(F)cc(F)c1)c1ccc(NCCCN2CCCCCC2)c([N+](=O)[O-])c1 | -72.1
* Cc1ccc(NC(=O)c2ccc(NCCCN3CCC(C)CC3)c([N+](=O)[O-])c2)c(C)c1 | -19.4
* CCCN(CCC)CCCNc1ccc(C(=O)Nc2cccc(OC)c2)cc1[N+](=O)[O-].Cl | -76.3
* O=C(Nc1ccc(Cl)c([N+](=O)[O-])c1)c1ccc(NCCCN2CCOCC2)c([N+](=O)[O-])c1 | -10.2
* COc1ccc(S(=O)(=O)NCc2cccnc2)cc1NC(=O)c1ccc(C)cc1 | -17.6
* COc1cc(-c2nnc(COC(=O)c3ccc(C)o3)o2)cc(OC)c1OC | 7.46
* COc1ccc(S(=O)(=O)NCc2ccccn2)cc1NC(=O)c1ccccc1 | 8.45
* CC(C)(C)S(=O)(=O)/C(C#N)=N/Nc1ccc(C#N)cc1 | 22.1
* COc1ccc(S(=O)(=O)NCc2cccnc2)cc1NC(=O)c1ccccc1 | -3.99

###

- systemName: human ether-à-go-go-related gene (hERG) potassium channel (human);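 further: peak tail current of the secondary pulse compared with the same well before compound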
- procedureText: primary screen, population patch clamp on CHO cells stably expressing hERG; higher = less effect of the substance
- Description: Briefly, Chinese hamster ovary (CHO) cells stably expressing the hERG channel were dislodged from tissue culture flasks and dispensed into PPC plates. […] During the recording, background leak currents were estimated by a 100 ms step to -80 mV from an initial holding potential of -70 mV and subtracted from the subsequent current measurement. The campaign was conducted in two phases using slight differences in recording protocol. […]
The whole screen tested about 310,000 compounds, of which about 14,000 (4.5%) showed an effect of 50% or more. The effect is printed as a negative number. The sample holds strong results, similar compounds and a random draw of the others, so the mix is not that of the screen.
resultType: hERG current change (%, negative = inhibition) at 10uM (%)

- CCNC(=S)N1CCC(c2nc3ccccc3s2)CC1: -25.7
- O=C(c1ccco1)N1CCN(Cc2cc(=O)c(OCc3ccccc3)co2)CC1: -25.5
- CC(NC(=O)c1ccco1)c1nc(-c2ccccc2Cl)no1 (stereo not shown): 3.9
- O=C(c1ccco1)N1CCN(Cc2cc(=O)c(OCc3ccc([N+](=O)[O-])cc3)co2)CC1: -76.2
- O=C(COc1coc(CN2CCc3ccccc3C2)cc1=O)Nc1ccc([N+](=O)[O-])cc1: -31.7
- COc1ccc(CN2CCN(C(=O)c3ccco3)CC2)cc1OC.O=C(O)C(=O)O: 16.8
- O=C(c1ccco1)N1CCN(Cc2cc(=O)c(OCc3ccc(F)cc3)co2)CC1: -62.2
- O=C(c1ccco1)N1CCN(Cc2cccc(F)c2)CC1: -0.928
- CCOc1cccc(/C=N/N2C(=O)CSC2=S)c1O: 24.2
- CSc1ccc(S(=O)(=O)N2CCC(C(=O)N3CCOCC3)CC2)cc1: 2.57

###

- systemName: human ether-à-go-go-related gene (hERG) potassium channel (human);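 further: peak tail current of the secondary pulse compared with the same well before compound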
- procedureText: primary screen, population patch clamp on CHO cells stably expressing hERG; higher = less effect of the substance
Among all 310,000 compounds or so, about 14,000 (4.5%) showed an effect of 50% or more. Effects have a minus sign here. The sample as a whole holds a higher share of strong results than the screen did.
Below, each of the compounds is paired with its reported hERG current change (%, negative = inhibition) at 10uM value.
resultType: hERG current change (%, negative = inhibition) at 10uM (%)

• Cc1cc(C)c(S(=O)(=O)NCCOc2ccccc2)c(C)c1-n1cnnn1 = 7.74
• Cc1ccc(NC(=O)C2OCCc3ccccc32)cc1C (stereo not drawn) = -3.78
• COc1ccc2c(c1)CCc1sc(NC(=O)c3ccc(C)cc3)nc1-2 = 10.9
• CC(=O)Nc1ccc2nc(SCC(=O)N3CCOCC3)sc2c1 = 18.9
• COc1ccc(N2C(=O)CCC2=O)c(OC)c1 = 20.7
• O=C(Nc1oc2ccccc2c(=O)c1-c1ccc(Br)cc1)c1ccco1 = -52.5
• COC(=O)CSc1nc(C)c(Oc2ccccc2)c(=O)[nH]1 = 11.6
• COc1ccc2c(c1OC)C(=O)N(c1ccc(O)cc1)C2 = 13.5
• COc1cccc(C(=O)NCc2ccc3c(c2)OCO3)c1OC = 16.3
• CCOc1ccc(N2CCc3c(C)nc(SC)nc32)cc1 = -2.26
• CCC(CC)C(=O)Nc1cc([N+](=O)[O-])ccc1F = -2.25
• CSc1nc(C)c2c(n1)N(c1ccc(O)cc1)CC2 = 4.88
• COc1ccc(N2C(=O)CC(NCc3cccc(F)c3)C2=O)cc1 (stereo not drawn) = -13.3
• COc1cc(/C=N/NS(=O)(=O)c2ccc(Br)cc2)ccc1O = 1.58
• Cn1nc(C(F)(F)F)c(-c2ccc(F)cc2)c1NC(=O)c1ccco1 = -32.8
• COc1ccccc1N1CCN(Cc2c(F)cccc2F)CC1 = -18
• CSc1ccccc1NC(=O)Cc1ccc(Br)cc1 = -10.2
• CCn1c2ccccc2c2cc(NC(=O)c3cccc([N+](=O)[O-])c3C)ccc21 = 7.76
• CCc1ccc(S(=O)(=O)NCc2cn3ccsc3n2)s1 = 6.83
• CCc1ccc(NC(=O)CSc2nnnn2-c2cccnc2)cc1 = -15.4
• CN(C)c1ccc(C(CNC(=O)Cc2cccc3ccccc23)N(C)C)cc1 (stereo not drawn) = -32.8
• Cn1nc(C(F)(F)F)c(-c2ccc(Br)cc2)c1NC(=O)c1cccnc1 = 0.61
• CN(CCc1ccccn1)C(=S)NC(=O)c1ccco1 = 17.1
• Cn1nc(C(F)(F)F)c(-c2ccccc2)c1NC(=O)c1ccco1 = -3.07
• COc1ccccc1N1CCN(Cc2nc(-c3ccc(F)cc3)oc2C)CC1 = -65.9
• CC(C)C(NC(=O)C1CCCCC1)C(=O)N1CCN(c2ccc(F)cc2)CC1 (stereo not drawn) = -55.7
• Cc1c(CCC(=O)NCC(=O)NCC(=O)O)c(=O)oc2cc3oc4c(c3cc12)CCCC4 = 4.87
• Cc1cc(C)cc(NC(=O)c2ccc(S(=O)(=O)C(F)F)cc2)c1 = -29.7
• CN(C)CCCNC(=S)Nc1ccc(Oc2ccccc2)cc1 = -3.24
• Cc1ccc(C)c(SCC(=O)Nc2cccnc2Cl)c1 = 0.545
• C/C(=C\c1ccc(Cl)cc1)C(=O)c1c(C)cc(C)[nH]c1=O = 9.59
• COc1ccccc1CN1CCN(S(=O)(=O)c2ccc(C)cc2)CC1 = -19
• CC(C)[C@H](NC(=O)C1CCN(S(=O)(=O)c2ccc(F)cc2)CC1)C(=O)N1CCCCCC1 = 5.18
• COc1ccc(N2CCc3c(C)nc4c(OC)cc(OC)cc4c32)c(OC)c1 = -75.3
• COc1ccccc1CN1CCN(Cc2nc(-c3ccc(C)cc3)oc2C)CC1 = -58.8
• O=C(CCCCl)NC1=NN(c2ccccc2)C(=O)C1 = -4.99
• O=C(Nc1oc2ccccc2c(=O)c1-c1ccc(Cl)cc1)c1ccco1 = -20.4
• C#Cc1ccc(CN2CCN(Cc3ccsc3)C(CCO)C2)cc1 (stereo not drawn) = -34.6
• COc1ccc(N2CCCC2=N)c(OC)c1.Cl = 12.7
• COc1cccc(N2CCN(C(=O)CN(C)S(=O)(=O)c3ccc4c(c3)c(=O)n(C)c(=O)n4C)CC2)c1 = -10.8
• OCCC1CN(Cc2ccccc2-c2ccco2)CCN1Cc1ccsc1 (stereo not drawn) = -51
• COc1cc(C(F)(F)F)c(C(=O)N(C)Cc2cc(Cl)cc(Cl)c2)cn1 = -18.9
